System: NCI-H460
Assay comment: Antiproliferative activity against human NCI-H460 cells
Assay type: functional, cell-based
Numbered stars: 1 amine (or outer) side, 2 acyl side, 3 side chain; on linkers, the order of the positions; unused ones are H or OH. Square brackets hold non-standard residues; d marks the D form. Peptide text beside a SMILES is read from it. * marks the point of attachment. X1 = CCC(=O)C[C@H](O)C[C@@H](C)C[C@H](N[*:1])C(=O)[*:2]; NH((S)CH(Me)CH2NHC2H4OH) = C[C@@H](CNCCO)N*; Gly(octyl) = CCCCCCCC[C@H](N)C(=O)O; Ac4c = NC1(C(=O)O)CCC1; Aib = CC(C)(N)C(=O)O; Butyryl = CCCC(=O)*; βAla = NCCC(=O)O
Each entry below carries its reported pIC50.
Formally, pIC50 is defined as -log10 of the concentration c, with c in mol/L.

Please review the entries below; each comes with its answer.
[[record]]
compound = "CCCCCCCC[C@H](NC(=O)C(C)(C)NC(=O)C(C)(C)NC(=O)[C@H](C[C@H](C)C[C@@H](O)CC(=O)CC)NC(=O)[C@@H]1CCCN1C(=O)CCC)C(=O)N[C@@H](CC(C)C)C(=O)NC(C)(C)C(=O)N[C@@H](CC(C)C)C(=O)NCCC(=O)N[C@@H](C)CNCCO (Butyryl-P[X1][Aib][Aib][Gly(octyl)]L[Aib]L[βAla]-{NH((S)CH(Me)CH2NHC2H4OH)})"
reported_result = 8.10

[[record]]
compound = "CCCCCCCC[C@H](NC(=O)C(C)(C)NC(=O)C(C)(C)NC(=O)[C@H](CS)NC(=O)[C@@H]1CCCN1C(=O)CCC)C(=O)N[C@@H](CC(C)C)C(=O)NC(C)(C)C(=O)N[C@@H](CC(C)C)C(=O)NCCC(=O)N[C@@H](C)CNCCO (Butyryl-PC[Aib][Aib][Gly(octyl)]L[Aib]L[βAla]-{NH((S)CH(Me)CH2NHC2H4OH)})"
reported_result = 6.60

[[record]]
compound = "CCCCCCCC[C@H](NC(=O)C(C)(C)NC(=O)C(C)(C)NC(=O)C1(NC(=O)[C@@H]2CCCN2C(=O)CCC)CCC1)C(=O)N[C@@H](CC(C)C)C(=O)NC(C)(C)C(=O)N[C@@H](CC(C)C)C(=O)NCCC(=O)N[C@@H](C)CNCCO (Butyryl-P[Ac4c][Aib][Aib][Gly(octyl)]L[Aib]L[βAla]-{NH((S)CH(Me)CH2NHC2H4OH)})"
reported_result = 7.72


We next turn to a different compound, shown below.
Problem: Value lookup for pIC50; key = CCCCCCCC[C@H](NC(=O)C(C)(C)NC(=O)C(C)(C)NC(=O)[C@H](Cc1c[nH]c2ccccc12)NC(=O)[C@@H]1CCCN1C(=O)CCC)C(=O)N[C@@H](CC(C)C)C(=O)NC(C)(C)C(=O)N[C@@H](CC(C)C)C(=O)NCCC(=O)N[C@@H](C)CNCCO (Butyryl-PW[Aib][Aib][Gly(octyl)]L[Aib]L[βAla]-{NH((S)CH(Me)CH2NHC2H4OH)})
Result: 7.64
